procedure.details: Volume of distribution at steady state in rat
Type: ADME, organism-based
measurement.conditions: in vivo, read-out: Vdss

- line.notation: "CC(C)[C@@](O)(C(=O)N1CCC(C2CCN(c3ccc(C(=O)N(C)C)c(Cl)c3)CC2)CC1)C(F)(F)F"
  Vd, L/kg: 8.8

----------
test.system: Oxysterols receptor LXR-alpha (Homo sapiens, UniProt Q13133)
Sequence (Q13133 whole entry, the tested form may be a part): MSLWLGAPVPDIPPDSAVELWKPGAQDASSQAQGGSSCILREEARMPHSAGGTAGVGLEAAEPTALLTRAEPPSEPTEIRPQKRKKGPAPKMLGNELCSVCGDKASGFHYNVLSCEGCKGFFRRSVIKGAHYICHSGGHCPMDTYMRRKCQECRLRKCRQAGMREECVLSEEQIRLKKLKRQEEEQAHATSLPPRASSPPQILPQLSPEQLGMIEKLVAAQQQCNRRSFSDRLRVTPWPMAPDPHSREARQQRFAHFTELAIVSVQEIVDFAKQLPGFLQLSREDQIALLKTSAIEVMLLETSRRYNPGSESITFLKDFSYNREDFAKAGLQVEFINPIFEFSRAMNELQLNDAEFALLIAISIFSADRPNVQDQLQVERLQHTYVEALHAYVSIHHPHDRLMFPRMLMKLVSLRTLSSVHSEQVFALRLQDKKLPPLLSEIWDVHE
procedure.details: Partial agonist activity at GST-tagged LXRalpha-LBD (unknown origin) by LanthaScreen TR-FRET liver X receptor coactivator assay
experimental.endpoint: EC50 (nM)

- line.notation: "CC(C)[C@@](O)(C(=O)N1CCC(C2CCN(c3ccc(C(=O)N(C)C)c(Cl)c3)CC2)CC1)C(F)(F)F"
  test.system: "Oxysterols receptor LXR-alpha (Homo sapiens, UniProt Q13133)"
  experimental.endpoint: "EC50"
  data.value: 1900

----------
procedure.details: Ratio of drug uptake in brain to plasma in rat
Type: ADME, cell-free
measurement.conditions: brain and plasma, read-out: BPR
experimental.endpoint: Kp

- line.notation: "CC(C)[C@@](O)(C(=O)N1CCC(C2CCN(c3ccc(C(=O)N(C)C)c(Cl)c3)CC2)CC1)C(F)(F)F"
  data.value: 0.62

----------
procedure.details: Cmax in rhesus monkey at 10 mg/kg, po administered for 2 weeks
Assay type: ADME, organism-based, Macaca mulatta
Design: dose 10 mg/kg, route oral
measurement.conditions: in vivo

- line.notation: "CC(C)[C@@](O)(C(=O)N1CCC(C2CCN(c3ccc(C(=O)N(C)C)c(Cl)c3)CC2)CC1)C(F)(F)F"
  Cmax: "1000 nM"

----------
Tested on: P-gp
procedure.details: Efflux ratio in MDCK cells expressing human P-gp assessed as ratio of permeability across basolateral to apical side over apical to basolateral side
Format: ADME, cell-based, Canis lupus familiaris
measurement.conditions: dog, MDCK-MDR1

- line.notation: "CN(C)C(=O)c1ccc(N2CCC(C3CCN(C(=O)[C@](O)(c4ccccc4)C(F)(F)F)CC3)CC2)cc1Cl"
  efflux ratio: 1.8
- line.notation: "CC(C)[C@@](O)(C(=O)N1CCC(C2CCN(c3ccc(C(=O)N(C)C)c(Cl)c3)CC2)CC1)C(F)(F)F"
  efflux ratio: 0.6

----------
procedure.details: Oral bioavailability in rhesus monkey
Format: ADME, organism-based, Macaca mulatta
measurement.conditions: in vivo

- line.notation: "CC(C)[C@@](O)(C(=O)N1CCC(C2CCN(c3ccc(C(=O)N(C)C)c(Cl)c3)CC2)CC1)C(F)(F)F"
  display.unit: "%"
  bioavailability: 77

----------
procedure.details: Volume of distribution at steady state in rhesus monkey
Assay type: ADME, organism-based, Macaca mulatta
measurement.conditions: in vivo, read-out: Vdss

- line.notation: "CC(C)[C@@](O)(C(=O)N1CCC(C2CCN(c3ccc(C(=O)N(C)C)c(Cl)c3)CC2)CC1)C(F)(F)F"
  display.unit: "L/kg"
  Vd: 2.7

----------
Listing of recorded EC50 by entry.
test.system: Oxysterols receptor LXR-alpha (Homo sapiens)
procedure.details: Agonist activity at GST-tagged LXRalpha-LBD (unknown origin) by LanthaScreen TR-FRET liver X receptor coactivator assay

- line.notation: "CN(C)C(=O)c1ccc(-c2cnc(N3CCN(C(=O)OC(C)(C)C)CC3)c(C#N)c2)cc1Cl"
  EC50, nM: 1480
- line.notation: "CN(C)C(=O)c1ccc(-c2cnc(N3CCN(C(=O)[C@](O)(c4ccccc4)C(F)(F)F)CC3)c(C#N)c2)cc1Cl"
  EC50, nM: 41

Taken from ChEMBL document CHEMBL3808288.
